This collection of values is drawn from the supplement of paper PMC11208160.

# protocol notes: recombinant barcode read abundance after kanamycin selection (control-corrected) (log10(CPM+1)); higher = more efficient recombination; sequences stand for … in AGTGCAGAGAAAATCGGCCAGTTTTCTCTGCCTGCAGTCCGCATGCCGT…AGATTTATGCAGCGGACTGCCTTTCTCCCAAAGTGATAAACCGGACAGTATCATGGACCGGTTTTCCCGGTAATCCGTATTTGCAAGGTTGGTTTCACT; site = the 11-nt target
Lab note: compare recombinant barcode read abundance (log10) against 0.2. Equal or greater, write Met. Smaller, write Not met.

(Q) Is recombinant barcode read abundance (log10) at least 0.2? Consider CGCCCTACTTGGGTTCTAACCTGTTGCCT (site CGCCCTACTAG)
(A) Met

(Q) Is recombinant barcode read abundance (log10) at least 0.2? Consider CGTCAGACTTGGGTTCTAACCTGTTGCCT (site CGTGAGACTAG)
(A) Met

(Q) Is recombinant barcode read abundance (log10) at least 0.2? Consider TACCGTCCTTGGGTTCTAACCTGTTGCGG (site GCGTCCTCTAA)
(A) Met

(Q) Is recombinant barcode read abundance (log10) at least 0.2? Consider AGACCTCCTTGGGTTCTAACCTGTTGCTT (site AGACTTCCTAA)
(A) Not met

(Q) Is recombinant barcode read abundance (log10) at least 0.2? Consider CGTGGGCCTTGGGTTCTAACCTGTTGCCT (site CCTGGGCCTAG)
(A) Met

###

# protocol notes: recombinant barcode read abundance after kanamycin selection (control-corrected) (log10(CPM+1)); higher = more efficient recombination; sequences stand for … in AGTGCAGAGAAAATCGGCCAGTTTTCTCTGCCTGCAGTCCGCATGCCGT…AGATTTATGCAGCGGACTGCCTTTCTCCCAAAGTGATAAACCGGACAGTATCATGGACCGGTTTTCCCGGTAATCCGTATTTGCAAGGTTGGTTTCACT; site = the 11-nt target
recorded endpoint: recombinant barcode read abundance (log10)
Provide a numeric answer; units are not to be included.

CCGCATGCTTGGGTTCTAACCTGTTGCCT (site CCGGATGCTAG) has a reported recombinant barcode read abundance (log10) of 0.0172

TGGACCTCTTGGGTTCTAACCTGTTGCCA (site TGGACCTCTTG) has a reported recombinant barcode read abundance (log10) of 0.222

TAGCACCCTTGGGTTCTAACCTGTTGCCA (site TAGCACCCTGG) has a reported recombinant barcode read abundance (log10) of 0.156

AACGCTTCTTGGGTTCTAACCTGTTGCCT (site AGCGCTTCTAG) has a reported recombinant barcode read abundance (log10) of 0.0496

TAATCTCCTTGGGTTCTAACCTGTTGCGT (site TAATCTCCTAC) has a reported recombinant barcode read abundance (log10) of 0.167

TCCGAAGCTTGGGTTCTAACCTGTTGCTA (site TCCTAAGCTTA) has a reported recombinant barcode read abundance (log10) of 0.0103

ACTGAGTCTTGGGTTCTAACCTGTTGCAT (site ACTGAGTCTTT) has a reported recombinant barcode read abundance (log10) of 0.109

CCTGGACCTTGGGTTCTAACCTGTTGCTT (site CCTGGTCCTAT) has a reported recombinant barcode read abundance (log10) of 0

CCGAGAGCTTGGGTTCTAACCTGTTGCCT (site CGGAGAGCTAG) has a reported recombinant barcode read abundance (log10) of 0.0785

GGGGCATCTTGGGTTCTAACCTGTTGCCT (site GGGGCATCTAG) has a reported recombinant barcode read abundance (log10) of 0.0863

###

# protocol notes: recombinant UMI read abundance after kanamycin selection (control-corrected) (log10(CPM+1)); higher = more efficient recombination; extreme values may be limits of the assay; sequences stand for … in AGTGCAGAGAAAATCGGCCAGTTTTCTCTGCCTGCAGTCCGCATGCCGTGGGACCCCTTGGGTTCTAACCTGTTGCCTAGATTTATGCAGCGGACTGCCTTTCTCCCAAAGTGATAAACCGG…AGGTTGGTTTCACT; site = the 11-nt donor
Entry class follows recombinant UMI read abundance (log10): class A: < 0.01; class B: ≥ 0.01 and < 0.8; class C: ≥ 0.8

(Q) # bin label for AAGCACGCATGGACCGGTTTTCCCGGTAATCCGTATTTGGG (site AATCACGCTCC)
(A) class B

(Q) # bin label for ACCTAGACATGGACCGGTTTTCCCGGTAATCCGTATTTGGA (site ACCTAGACTCC)
(A) class B

(Q) # bin label for TGCTAGGCATGGACCGGTTTTCCCGGTAATCCGTATTTGGT (site TGCCAGGCTAC)
(A) class A

(Q) # bin label for GGATCGACATGGACCGGTTTTCCCGGTAATCCGTATTTGTA (site GGATCGACTTA)
(A) class B

(Q) # bin label for CGCGAACCATGGACCGGTTTTCCCGGTAATCCGTATTTGAT (site CGTGAACCTAT)
(A) class A

(Q) # bin label for GCGATTCCATGGACCGGTTTTCCCGGTAATCCGTATTTGTC (site GCGATTCCTGA)
(A) class C

(Q) # bin label for GTGGTGGCATGGACCGGTTTTCCCGGTAATCCGTATTTGTG (site GTGGGGGCTCA)
(A) class B

(Q) # bin label for AGCTCAGCATGGACCGGTTTTCCCGGTAATCCGTATTTGAG (site AGCTCAGCTCC)
(A) class B

(Q) # bin label for AAATATACATGGACCGGTTTTCCCGGTAATCCGTATTTGAC (site AAATATACTGT)
(A) class C

###

I'd be grateful if you could share measured recombinant barcode read abundance (log10) for these entries.
# protocol notes: recombinant barcode read abundance after kanamycin selection (control-corrected) (log10(CPM+1)); higher = more efficient recombination; sequences stand for … in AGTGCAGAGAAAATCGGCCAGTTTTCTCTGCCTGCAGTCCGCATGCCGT…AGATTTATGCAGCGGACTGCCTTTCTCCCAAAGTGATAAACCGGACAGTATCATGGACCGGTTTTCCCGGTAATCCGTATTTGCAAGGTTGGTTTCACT; site = the 11-nt target
Provide a numeric answer; units are not to be included.

CATCAGCCTTGGGTTCTAACCTGTTGCGT (site CATCAGCCTAC) has a reported recombinant barcode read abundance (log10) of 1.63

TGCCAGACTTGGGTTCTAACCTGTTGCGT (site AGCCACACTAC) has a reported recombinant barcode read abundance (log10) of 0.0104

CCTGTATCTTGGGTTCTAACCTGTTGCCT (site GCTGTATCTAG) has a reported recombinant barcode read abundance (log10) of 0.26

AATAGCTCTTGGGTTCTAACCTGTTGCCT (site TATAGCTCTAG) has a reported recombinant barcode read abundance (log10) of 0.116

AAATCCTCTTGGGTTCTAACCTGTTGCCT (site GAATCCTCTAG) has a reported recombinant barcode read abundance (log10) of 0.085

TAGTGTGCTTGGGTTCTAACCTGTTGCCT (site TAGTGTGCTAG) has a reported recombinant barcode read abundance (log10) of 1.06

CGGCACACTTGGGTTCTAACCTGTTGCTT (site CGGCACACTAA) has a reported recombinant barcode read abundance (log10) of 0.778

GTAAGTACTTGGGTTCTAACCTGTTGCGG (site AGAAGTACTCC) has a reported recombinant barcode read abundance (log10) of 0

CTAGACTCTTGGGTTCTAACCTGTTGCAG (site CTAGACTCTAT) has a reported recombinant barcode read abundance (log10) of 0.88

CCTGGCACTTGGGTTCTAACCTGTTGCGA (site CCTGGCACTTC) has a reported recombinant barcode read abundance (log10) of 2.37

TGTTTAACTTGGGTTCTAACCTGTTGCCT (site TGGTTACCTAG) has a reported recombinant barcode read abundance (log10) of 0.126

AAGGTCACTTGGGTTCTAACCTGTTGCTG (site AAGGTCACTCA) has a reported recombinant barcode read abundance (log10) of 2.52

GAAATAACTTGGGTTCTAACCTGTTGCGT (site GAAATAACTAC) has a reported recombinant barcode read abundance (log10) of 0.995

AGAGAGACTTGGGTTCTAACCTGTTGCAC (site AGAGAGACTGT) has a reported recombinant barcode read abundance (log10) of 2.18

CTAACTGCTTGGGTTCTAACCTGTTGCGT (site CTAACTGCTAC) has a reported recombinant barcode read abundance (log10) of 0.96

AGCCCTCCTTGGGTTCTAACCTGTTGCTG (site AGCCCTCCTTA) has a reported recombinant barcode read abundance (log10) of 0.0866

GAGATCCCTTGGGTTCTAACCTGTTGCCA (site GAGATCCCTTG) has a reported recombinant barcode read abundance (log10) of 1.22

TAGTCATCTTGGGTTCTAACCTGTTGCTC (site TAGTCATCTGA) has a reported recombinant barcode read abundance (log10) of 1.41

CTATTTGCTTGGGTTCTAACCTGTTGCAA (site CTAGTTGCTTT) has a reported recombinant barcode read abundance (log10) of 0.0402

AGACCTCCTTGGGTTCTAACCTGTTGCTT (site AGACCTCCTAA) has a reported recombinant barcode read abundance (log10) of 1.39

CTTTGGCCTTGGGTTCTAACCTGTTGCTT (site CCTTGGGCTAA) has a reported recombinant barcode read abundance (log10) of 0.439
